# MEASURED_TARGET: HCV polymerase 1b Δ8 S282T (Hepatitis C virus genotype 1b, UniProt P26663, DEL2863-2870/E2505Q/E2506Q/K2533R/L2466Q/R2963Q/S2701T/S2872G/Y2871G)
# Construct: 1bΔ8 S282T
# TEST_SUMMARY: Inhibition assay (chain termination) with construct 1b Δ8 S282T
pIC50: −log10 of the molar value.
READOUT_LABEL: pIC50

I am curious: what pIC50 value has been reported for C[C@@]1(F)[C@H](O)[C@@H](COP(=O)(O)OP(=O)(O)OP(=O)(O)O)O[C@H]1n1cnc2c(=O)[nH]c(N)nc21 [PSI-352666] ? 4.85 to 5.05

I am curious: what pIC50 value has been reported for C[C@@]1(O)[C@H](O)[C@@H](COP(=O)(O)OP(=O)(O)OP(=O)(O)O)O[C@H]1n1cnc2c(=O)[nH]c(N)nc21 [2′-C-MeGTP] ? < 4.00

---

# MEASURED_TARGET: HCV NS5B polymerase 1b Δ8 (Hepatitis C virus genotype 1b, UniProt P26663, DEL2863-2870/E2505Q/E2506Q/K2533R/L2466Q/R2963Q/S2872G/Y2871G)
# Construct: 1bΔ8
# TEST_SUMMARY: Inhibition assay (chain termination) with construct 1b Δ8
# STUDY_CONDITIONS: one value or range given for both 1b WT and 1b Δ8
READOUT_LABEL: IC50 (µM)
Provide only the numeric value, understood in µM.

I am curious: what IC50 value has been reported for C[C@@]1(F)[C@H](O)[C@@H](COP(=O)(O)OP(=O)(O)OP(=O)(O)O)O[C@H]1n1cnc2c(=O)[nH]c(N)nc21 [PSI-352666] ? 4

---

Exercise: for every item that follows, state its recorded pIC50.
# MEASURED_TARGET: HCV polymerase 1b S282T (Hepatitis C virus genotype 1b, UniProt P26663, E2505Q/E2506Q/K2533R/L2466Q/R2963Q/S2701T)
# Construct: 1b S282T
# TEST_SUMMARY: Inhibition assay (chain termination) with construct 1b S282T
pIC50: −log10 of the molar value.

I am curious: what pIC50 value has been reported for C[C@@]1(F)[C@H](O)[C@@H](COP(=O)(O)OP(=O)(O)OP(=O)(O)O)O[C@H]1n1cnc2c(=O)[nH]c(N)nc21 [PSI-352666] ? 4.85 to 5.05

I am curious: what pIC50 value has been reported for C[C@@]1(O)[C@H](O)[C@@H](COP(=O)(O)OP(=O)(O)OP(=O)(O)O)O[C@H]1n1cnc2c(=O)[nH]c(N)nc21 [2′-C-MeGTP] ? < 4.00

The reported numbers originate from patent US20150087045A1.
